Values compiled from patent US9090583B2.

tested on: MDA-MB-231 cells; assay: CellTiter-Glo Luminescent Cell Viability Assay on ER-negative breast cancer MDA-MB-231 cells; type: cell-based; settings: 72 hours, average ± standard deviation when tested more than 3 times, read-out: Inhibition of the viability of breast cancer cells, IC50
Assay metric: pIC50
Keep it numeric: pIC50 is minus log10 of the concentration in mol/L.

Some molecules with recorded pIC50:
>  <Molecule>
COc1c(-c2ccc(Cl)c(C(F)(F)F)c2)oc2c(CC=C(C)C)c(O)c(CC=C(C)C)c(O)c2c1=O

>  <pIC50>
4.64

$$$$
>  <Molecule>
COc1c(-c2ccc(Cl)cc2)oc2c(CC=C(C)C)c(O)c(CC=C(C)C)c(O)c2c1=O

>  <pIC50>
5.05

$$$$
>  <Molecule>
COc1c(-c2ccc3nccnc3c2)oc2c(CC=C(C)C)c(O)c(CC=C(C)C)c(O)c2c1=O

>  <pIC50>
4.92

$$$$
>  <Molecule>
COc1c(-c2ccc(C(C)O)cc2)oc2c(CC=C(C)C)c(O)c(CC=C(C)C)c(O)c2c1=O (centres unmarked)

>  <pIC50>
5.49

$$$$
>  <Molecule>
COc1c(-c2ccc(Cl)c(Cl)c2)oc2c(CC=C(C)C)c(O)c(CC=C(C)C)c(O)c2c1=O

>  <pIC50>
4.79

$$$$

// map COc1c(-c2ccnn2C)oc2c(CC=C(C)C)c(O)c(CC=C(C)C)c(O)c2c1=O [Compound 48] to recorded pIC50 (system: MDA-MB-231 cells)
4.60

// map "COc1c(-c2ccc3c(c2)OCCO3)oc2c(CC=C(C)C)c(O)c(CC=C(C)C)c(O)c2c1=O" to recorded pIC50 (system: MDA-MB-231 cells)
4.90

---

system: SK-OV3 cells; experiment: CellTiter-Glo Luminescent Cell Viability Assay on ovary cancer SK-OV3 cells; assay type: cell-based; conditions: Homo sapiens, SK-OV-3, 72 hours, read-out: Inhibition of the viability of ovary cancer cells, IC50
Assay metric: pIC50
Keep it numeric: pIC50 is minus log10 of the concentration in mol/L.

>  <Smiles code>
COc1c(-c2ccc(Cl)c(F)c2)oc2c(CC=C(C)C)c(O)c(CC=C(C)C)c(OC)c2c1=O

>  <Target desc>
SK-OV3 cells

>  <pIC50>
4.80

$$$$

Note: attention shifts to another entry.
Report pIC50 for "COc1c(-c2cc(F)cc(F)c2)oc2c(CC=C(C)C)c(O)c(CC=C(C)C)c(O)c2c1=O" please.
5.14

---

system: MDA-MB-231 cells; test: CellTiter-Glo Luminescent Cell Viability Assay on ER-negative breast cancer MDA-MB-231 cells; assay type: cell-based; conditions: 72 hours, average ± standard deviation when tested more than 3 times, read-out: Inhibition of the viability of breast cancer cells, IC50
Lab note - cut at 10 µM for IC50: TRUE if strictly below, FALSE if not.

State whether 10 µM exceeds IC50 recorded for "COc1c(-c2ccc(C(C)C)cc2)oc2c(CC=C(C)C)c(O)c(CC=C(C)C)c(O)c2c1=O" .
FALSE

State whether 10 µM exceeds IC50 recorded for "COc1c(-c2ccc(F)nc2)oc2c(CC=C(C)C)c(O)c(CC=C(C)C)c(O)c2c1=O" .
FALSE

State whether 10 µM exceeds IC50 recorded for "COc1ccc(-c2cc(=O)c3c(O)c(CC=C(C)C)c(O)c(CC=C(C)C)c3o2)cc1Cl" .
FALSE

State whether 10 µM exceeds IC50 recorded for "COc1c(-c2ccc(Cl)cn2)oc2c(CC=C(C)C)c(O)c(CC=C(C)C)c(O)c2c1=O" .
FALSE

State whether 10 µM exceeds IC50 recorded for "COc1c(-c2ccc(C(F)(F)F)c(F)c2)oc2c(CC=C(C)C)c(O)c(CC=C(C)C)c(O)c2c1=O" .
TRUE
